System: HEK-293T
Experiment: Multiplex assay against HEK293T;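 on Population Tubulin-Different-Phenotype (%): share of the cells with healthy nuclei that show this phenotype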
Format: toxicity, cell-based
Conditions: human, 12 h, 10 µM, compound concentration 10 uM, replicate 2
Quantity name: Population Tubulin-Different-Phenotype (%)
Write down the numeric answer in % and omit the unit.

Sample records with Population Tubulin-Different-Phenotype (%):
C=CC(=O)Nc1cccc(Oc2nc(Nc3ccc(N4CCN(C)CC4)cc3OC)ncc2Cl)c1	16
C[C@]12CC[C@@H]3c4ccc(O)cc4CC[C@H]3[C@@H]1CC[C@@H]2O	9
Cc1cccc(CN2CCN(C(c3ccccc3)c3ccc(Cl)cc3)CC2)c1.Cl.Cl (stereo not drawn)	69

Exercise: API: value(readout= Population Tubulin-Different-Phenotype (%), system= HEK-293T, query= CNC(=O)Nc1ccc2c(c1)[C@@]1(CC2)OC(=O)N(CC(=O)N(Cc2ccc(F)cc2)[C@@H](C)C(F)(F)F)C1=O )
Solution: 13

Exercise: # value lookup — system HEK-293T, readout Population Tubulin-Different-Phenotype (%), item Cc1c[nH]c2nccc(Oc3c(F)cc(Nc4cc(Cl)nc(N)n4)cc3F)c12
Solution: 1

Exercise: Value wanted: Population Tubulin-Different-Phenotype (%) (HEK-293T) of entry CC(C)NC(=O)N1CC[C@H](NC2=Nc3cc(F)ccc3N(CC(F)F)c3ccc(Cl)cc32)C1
Solution: 57

Exercise: Checklist item: Population Tubulin-Different-Phenotype (%) tested on HEK-293T, entry CNC(=O)Nc1ccc(-c2nc(N3CC4CCC(C3)O4)c3cnn(C4CCC5(CC4)OCCO5)c3n2)cc1 , value?
Solution: 100

Exercise: Item: CCc1nn(CCCN2CCN(c3cccc(Cl)c3)CC2)c(=O)n1CCOc1ccccc1.Cl [NEFAZODONE HYDROCHLORIDE] Test system: HEK-293T Read-out: Population Tubulin-Different-Phenotype (%) Value: ?
Solution: 100

* * *

System: HEK-293T
Assay: Multiplex assay against HEK293T
Type: toxicity, cell-based
Settings: human, 24 h, 10 µM, compound concentration 10 uM, replicate 1
Readings of Total Cell Count for the listed compounds
Please state the value as a number alone, without comment.

Completed entries (count: 5):
COC(=O)C1=C(C)NC(C)=C(C(=O)OCCCN2CCC(c3ccccc3)(c3ccccc3)CC2)[C@H]1c1cccc([N+](=O)[O-])c1	263
O=c1[nH]c2ccccc2n1C1CCN(Cc2ccc(-c3[nH]c4cc5ncnc5cc4nc3-c3ccccc3)cc2)CC1	612
CNC(=O)Nc1ccc2c(c1)[C@@]1(CC2)OC(=O)N(CC(=O)N(Cc2ccc(F)cc2)[C@@H](C)C(F)(F)F)C1=O	551
C=CC(=O)Nc1cccc(Oc2nc(Nc3ccc(N4CCN(C)CC4)cc3OC)ncc2Cl)c1	923
COc1cc(Nc2nccc(-c3cnn4nc(OC)ccc34)n2)cc(C(F)(F)F)c1	330

Now for a further compound.
Exercise: API: value(readout= Total Cell Count, system= HEK-293T, query= CC(C)(C)NC[C@H](O)COc1nsnc1N1CCOCC1 )
Solution: 360

* * *

System: Fibroblast
Test: Multiplex assay against human fibroblast
Format: toxicity, cell-based
Conditions: 48 h, 1 µM, compound concentration 1 uM, replicate 2
Quantity name: Population Healthy Nuclei (%)
Only the number, expressed in %, is required.

Some solved entries appear below for comparison.
Cc1ccccc1C(c1ccccc1C)N1C2CCC1CC(O)(c1ccccc1)C2 (stereo not drawn)	40
CNC(=O)Nc1ccc(-c2nc(N3CC4CCC(C3)O4)c3cnn(C4CCC5(CC4)OCCO5)c3n2)cc1	61
CCc1nn(CCCN2CCN(c3cccc(Cl)c3)CC2)c(=O)n1CCOc1ccccc1.Cl [NEFAZODONE HYDROCHLORIDE]	67
CCCSc1nc(N[C@@H]2C[C@H]2c2ccc(F)c(F)c2)c2nnn([C@@H]3C[C@H](OCCO)[C@@H](O)[C@H]3O)c2n1 [TICAGRELOR]	68
COc1cc(Nc2nccc(-c3cnn4nc(OC)ccc34)n2)cc(C(F)(F)F)c1	56

Exercise: Please report the recorded Population Healthy Nuclei (%) for CN1CCN(Cc2ccc(Nc3ncc(Cl)c(Nc4ccccc4S(=O)(=O)N(C)C)n3)cc2)CC1 [DUBERMATINIB] .
Solution: 67

Exercise: Look up Population Healthy Nuclei (%): Cc1cccc(CN2CCN(C(c3ccccc3)c3ccc(Cl)cc3)CC2)c1.Cl.Cl (stereo not drawn)
Solution: 68

Exercise: Population Healthy Nuclei (%) lookup needed for CC1=C(C(=O)Nc2cc3cn[nH]c3cc2F)C(c2ccc(C(F)(F)F)cc2)CC(=O)N1 (stereo not drawn) , thanks.
Solution: 65
